STUDY SYSTEM: pseudo-wild type (pWT) PARM domain of Mint2 (residues 364-570, Y524W) (human, UniProt Q99767 364-570, Y524W)
Sequence (Q99767 364-570 Y524W): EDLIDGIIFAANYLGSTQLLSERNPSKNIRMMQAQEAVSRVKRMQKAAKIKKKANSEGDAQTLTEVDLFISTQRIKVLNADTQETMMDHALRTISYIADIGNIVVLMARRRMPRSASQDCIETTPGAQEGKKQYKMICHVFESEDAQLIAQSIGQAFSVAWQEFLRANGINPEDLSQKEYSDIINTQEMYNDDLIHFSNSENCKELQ
METHOD DESCRIPTION: stopped-flow fluorescence kinetics
MEASUREMENT CONTEXT: both partners purified
Where no end group is shown, it is not given here. The star is where a group is joined. Dansyl = CN(C)c1cccc2c(S(=O)(=O)*)cccc12
ASSAY READOUT: binding result

>  <BINDER>
Dansyl-NGFENPTYKFFE [dansyl-APP Y757F]

>  <ASSAY VALUE>
binds

$$$$
>  <BINDER>
Dansyl-NGYENPTYKAFE [dansyl-APP F764A]

>  <ASSAY VALUE>
binds

$$$$
>  <BINDER>
Dansyl-NGYENPTYKFGE [dansyl-APP F765G]

>  <ASSAY VALUE>
binds

$$$$
